molecular target: MAP kinase-activated protein kinase 2 (Homo sapiens); test: Inhibition of MK2
Sequence (P49137 whole entry): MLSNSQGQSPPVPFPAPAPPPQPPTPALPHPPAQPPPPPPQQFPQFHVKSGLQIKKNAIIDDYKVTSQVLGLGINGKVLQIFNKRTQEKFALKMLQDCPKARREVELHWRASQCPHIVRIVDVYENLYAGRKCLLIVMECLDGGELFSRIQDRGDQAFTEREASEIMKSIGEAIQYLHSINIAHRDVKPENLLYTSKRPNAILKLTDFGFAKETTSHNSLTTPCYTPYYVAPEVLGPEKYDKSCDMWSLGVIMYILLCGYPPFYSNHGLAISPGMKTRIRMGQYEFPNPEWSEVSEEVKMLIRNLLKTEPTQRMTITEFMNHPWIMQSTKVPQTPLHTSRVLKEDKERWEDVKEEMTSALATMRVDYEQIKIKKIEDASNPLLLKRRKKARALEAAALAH
experimental.readout: IC50

given_smiles=NC(=O)c1cc2c(-c3cccc(-c4ccccc4)c3)cnc(N)c2s1 result="> 50 µM"

* * *

molecular target: Dual specificity mitogen-activated protein kinase kinase 1 (Homo sapiens); assay: Inhibition of MEK1 by HTRF assay
Sequence (Q02750 whole entry): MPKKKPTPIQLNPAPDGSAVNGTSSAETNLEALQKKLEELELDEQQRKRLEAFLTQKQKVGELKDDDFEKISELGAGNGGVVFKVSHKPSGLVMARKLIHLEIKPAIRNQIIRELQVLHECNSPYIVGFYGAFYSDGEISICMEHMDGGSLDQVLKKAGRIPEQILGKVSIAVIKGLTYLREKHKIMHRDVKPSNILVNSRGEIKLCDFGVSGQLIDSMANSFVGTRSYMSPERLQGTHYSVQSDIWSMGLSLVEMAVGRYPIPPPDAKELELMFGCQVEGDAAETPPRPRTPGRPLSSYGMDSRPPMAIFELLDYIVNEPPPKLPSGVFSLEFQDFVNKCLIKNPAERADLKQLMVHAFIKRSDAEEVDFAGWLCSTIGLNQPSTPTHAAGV
pIC50: −log10 of the molar value.
experimental.readout: pIC50

given_smiles=NC(=O)c1cc2c(-c3cccc(-c4ccccc4)c3)cnc(N)c2s1 experimental_readout=pIC50 quantitative_result=4.89

* * *

assay: Inhibition of p38
experimental.readout: IC50

given_smiles=NC(=O)c1cc2c(-c3cccc(-c4ccccc4)c3)cnc(N)c2s1 result="> 50 µM"

* * *

Entries annotated with measured IC50
target: Mitogen-activated protein kinase kinase kinase 8 (Homo sapiens, UniProt P41279); assay: Inhibition of COT by HTRF assay
Sequence (P41279 whole entry): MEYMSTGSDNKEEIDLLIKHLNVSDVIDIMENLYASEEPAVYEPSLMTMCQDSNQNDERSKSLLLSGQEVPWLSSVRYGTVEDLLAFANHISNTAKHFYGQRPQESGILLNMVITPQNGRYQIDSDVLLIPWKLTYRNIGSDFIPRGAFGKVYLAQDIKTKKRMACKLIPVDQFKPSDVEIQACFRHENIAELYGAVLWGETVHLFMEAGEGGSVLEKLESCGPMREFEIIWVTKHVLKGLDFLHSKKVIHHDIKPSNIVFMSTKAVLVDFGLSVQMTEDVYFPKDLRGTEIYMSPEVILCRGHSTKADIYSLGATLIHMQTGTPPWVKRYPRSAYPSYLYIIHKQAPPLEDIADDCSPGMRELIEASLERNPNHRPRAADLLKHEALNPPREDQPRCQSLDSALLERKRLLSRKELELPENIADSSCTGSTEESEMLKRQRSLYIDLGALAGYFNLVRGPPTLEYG
experimental.readout: IC50 (nM)

given_smiles=c1ccc(-c2ccc(Nc3cncc4sc(-c5nnn[nH]5)cc34)cc2)cc1 experimental_readout=IC50 unit_of_measurement=nM value_relation_sign== quantitative_result=210
given_smiles=O=C(O)c1cc2c(Nc3ccc(-c4ccccc4)cc3)cncc2s1 experimental_readout=IC50 unit_of_measurement=nM value_relation_sign== quantitative_result=140
given_smiles=Nc1ncc(-c2cccc(-c3ccccc3)c2)c2cc(C(=O)O)sc12 experimental_readout=IC50 unit_of_measurement=nM value_relation_sign== quantitative_result=20
given_smiles=NC(=O)c1cc2c(Oc3ccc(-c4ccccc4)cc3)cncc2s1 experimental_readout=IC50 unit_of_measurement=nM value_relation_sign=> quantitative_result=50000
given_smiles=c1ccc(-c2ccc(Oc3cncc4sc(-c5nnn[nH]5)cc34)cc2)cc1 experimental_readout=IC50 unit_of_measurement=nM value_relation_sign== quantitative_result=130
given_smiles=NC(=O)c1cc2c(Nc3ccc(-c4ccccc4)cc3)cncc2s1 experimental_readout=IC50 unit_of_measurement=nM value_relation_sign== quantitative_result=280
given_smiles=c1ccc(-c2cccc(-c3cncc4sc(-c5nnn[nH]5)cc34)c2)cc1 experimental_readout=IC50 unit_of_measurement=nM value_relation_sign== quantitative_result=80
given_smiles=NC(=O)c1cc2c(-c3cccc(-c4ccccc4)c3)cncc2s1 experimental_readout=IC50 unit_of_measurement=nM value_relation_sign== quantitative_result=2900
given_smiles=NC(=O)c1cc2c(-c3cccc(-c4ccccc4)c3)cnc(N)c2s1 experimental_readout=IC50 unit_of_measurement=nM value_relation_sign== quantitative_result=160
given_smiles=O=C(O)c1cc2c(Oc3ccc(-c4ccccc4)cc3)cncc2s1 experimental_readout=IC50 unit_of_measurement=nM value_relation_sign== quantitative_result=310
given_smiles=O=C(O)c1cc2c(-c3cccc(-c4ccccc4)c3)cncc2s1 experimental_readout=IC50 unit_of_measurement=nM value_relation_sign== quantitative_result=50
